# Tested on: IGF1R
# EXPERIMENTAL SETUP: concentration: 1 μM, replicates: in singlicate; n = 1;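 also: KINOMEscan kinase panel screen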
Readings of %Inh for the listed compounds
OBSERVED PROPERTY: %Inh (%)

1. CNc1nc(-c2ccc3c(N)n[nH]c3c2)cc(N2C[C@@H](C(=O)Nc3ccccc3)CC[C@H]2C)n1 [GSK2298859] | 11
2. Cc1ccc(NC(=O)Nc2ccc(Cl)cc2)cc1-c1ccc(C(=O)Nc2ccncc2)cc1 [GSK1398472] | 6
3. NS(=O)(=O)c1cccc(N/C=C2\C(=O)Nc3ccc(S(=O)(=O)Cc4c(Cl)cccc4Cl)cc32)c1 [GSK398099] | 0
4. CC(=O)c1c(C)c2cnc(Nc3ccc(N4CCNCC4)cn3)nc2n(C2CCCC2)c1=O | 0
5. CSc1ccc(-c2nc3n(c2-c2ccncc2)CCC3)cc1 [SKF-105561] | 0
6. O=C(Nc1n[nH]c2cc(-c3ccsc3)ccc12)C1CC1 [SB-732932] | 0
7. O=C1NC(=O)C(c2ccc(Cl)cc2)=C1Nc1cccc(Cl)c1 [SB-317651] | 0
8. Cc1ccc(NC(=O)Nc2ccccc2)cc1-c1ccc(C(=O)Nc2ccncc2)cc1 [GSK1398471] | 11
9. CCCCc1nn2ncccc2c1-c1ccnc(NC2CC2)n1 [GW684374] | 0

---

Readings of %Inh for the listed compounds
# Tested on: PLK1
# EXPERIMENTAL SETUP: concentration: 1 μM, replicates: in singlicate; n = 1
OBSERVED PROPERTY: %Inh (%)

1) Cc1cnc(N)c(/C=C/c2cncc(C(=O)NCCc3ccc(Cl)cc3Cl)c2)c1.Cl [GSK190937] | 0
2) Cc1ccccc1Cn1ccn2c(=O)cc(N3CCOCC3)nc12 [GSK2269905] | 0
3) CC[C@@H]1CO[C@H](C(=O)Nc2ccccc2)CN1c1cc(-c2ccc3c(N)n[nH]c3c2)nc(NC)n1 [GSK2376236] | 0
4) COc1cccc(CNC(=O)NC2CCN(c3ccnc(Nc4ccc(F)cc4)n3)C2)c1 (stereo not drawn) [GSK1379723] | 0
5) O=C(Nc1n[nH]c2nc(-c3cccs3)c(Br)cc12)C1CC1 [SB-735297] | 9
6) COc1ccc(-c2coc3ccc(-c4nnc(C)o4)cc23)cc1 | 0
7) O=c1cc(N2CCOCC2)nc2n(Cc3ccccc3F)ccn12 [GSK2297428] | 13
8) NS(=O)(=O)c1cccc(N/C=C2\C(=O)Nc3ccc(S(=O)(=O)Cc4c(Cl)cccc4Cl)cc32)c1 [GSK398099] | 1
9) CNc1cc(-c2ccc3c(N)n[nH]c3c2)nc(N)n1 [GSK2224810] | 0

---

Readings of %Inh for the listed compounds
# System: AAK1
# EXPERIMENTAL SETUP: concentration: 1 μM, replicates: in singlicate; n = 1
OBSERVED PROPERTY: %Inh (%)

1) Cn1cnc2c(N)ncnc21 | 0
2) COc1ccc(CSc2nnc(-c3ccc4c(c3)CCO4)o2)cc1 | 8
3) CNCc1ccc2nc(NC(=O)c3ccc(C(C)(C)C)cc3)cn2c1 | 0
4) Cc1ccc(NC(=O)Nc2ccc(Cl)c(C(F)(F)F)c2)cc1-c1ccc(C(=O)Nc2ccncc2)cc1 | 3
5) O=C(Nc1n[nH]c2nc(-c3cccs3)c(Br)cc12)C1CCCC1 | 0
6) CC(=O)c1cccc(NC(=O)NC2CCN(c3ccnc(Nc4ccc(F)cc4)n3)C2)c1 (stereo not drawn) | 16
7) Cl.Cl.Cl.N#Cc1ccc(CCNc2nccc(-c3cccc(CN4CCNCC4)c3)n2)cc1 | 14
8) COc1ccc(Nc2nccc(N3CCC(NC(=O)C(C)c4ccc(Cl)cc4)CC3)n2)cc1 (stereo not drawn) | 23
9) Fc1ccc(-c2nc[nH]c2-c2ccncc2)cc1 | 0
10) COC(=O)c1cccc(NC(=O)NC2CCN(c3ccnc(Nc4ccc(OC)cc4)n3)C2)c1 (stereo not drawn) | 18
11) CS(=O)(=O)CCNCc1nc(-c2ccc3ncnc(Nc4ccc5c(cnn5Cc5ccccc5)c4)c3c2)cs1.Cl.Cl | 0
12) COc1ccc(Nc2nccc(NCCNC(=O)Nc3cc(C)ccc3C)n2)cc1 | 0
13) COc1cccc(CNC(=O)NC2CCN(c3ccnc(Nc4ccc(F)cc4)n3)C2)c1 (stereo not drawn) | 6
14) Cc1cnc(N)c(/C=C/c2cncc(C(=O)NCCc3ccc(Cl)cc3Cl)c2)c1.Cl | 19
15) CN1c2ccc(-c3ccc(C(N)=O)cc3)cc2-c2[nH]ncc2S1(=O)=O | 39
16) Cc1c(Cn2c3ccccc3n3c(=O)cc(N4CCOCC4)nc23)cccc1C(F)(F)F | 0
17) CC(C)c1ccc(O)cc1Nc1ccnc2ccc(C(F)(F)F)cc12 | 0
18) CC(C)c1cc(-c2ccc3c(N)n[nH]c3c2)nc(N)n1 | 53

---

# Tested on: SgK110
# EXPERIMENTAL SETUP: concentration: 1 μM, replicates: in singlicate; n = 1
OBSERVED PROPERTY: %Inh (%)

1) Cl.Cl.Cl.N#Cc1ccc(CCNc2nccc(-c3cccc(CN4CCNCC4)c3)n2)cc1 [GSK2137462] | 23
2) CNc1nc(-c2ccc3c(N)n[nH]c3c2)cc(N2C[C@@H](C(=O)NC3CCCCC3)OC[C@H]2C)n1 [GSK2375584] | 0
3) COc1cccc(NC(=O)Nc2ccc(C)c(-c3ccc(C(=O)Nc4ccncc4)cc3)c2)c1 [GSK1398474] | 0
4) O=c1cc(N2CCOCC2)nc2n(Cc3ccccc3F)ccn12 [GSK2297428] | 0

---

Readings of %Inh for the listed compounds
# Test system: CSNK1D
# EXPERIMENTAL SETUP: concentration: 1 μM, replicates: in singlicate; n = 1
OBSERVED PROPERTY: %Inh (%)

1. CNCc1ccc2nc(NC(=O)c3ccc(C(C)(C)C)cc3)cn2c1 | 11
2. CC(=O)c1c(C)c2cnc(Nc3ccc(N4CCNCC4)cn3)nc2n(C2CCCC2)c1=O | 8
3. CSc1ccc(-c2nc3n(c2-c2ccncc2)CCC3)cc1 [SKF-105561] | 6
4. COc1ccc(Nc2nccc(N3CCC(NC(=O)C(C)c4ccc(Cl)cc4)CC3)n2)cc1 (stereo not drawn) [GSK1379812] | 18
5. CS(=O)(=O)CCNCc1nc(-c2ccc3ncnc(Nc4ccc(OCc5ccccc5)c(Cl)c4)c3c2)cs1.Cl [GW582764] | 10
6. Cc1cccc2c(-c3ccncn3)c(-c3ccc(F)cc3)nn12 [GW515532] | 81
7. COc1cccc(CNC(=O)NC2CCN(c3ccnc(Nc4ccc(F)cc4)n3)C2)c1 (stereo not drawn) [GSK1379723] | 4
8. CCn1c(-c2ccccc2)nc2cnccc21 [SB-733416] | 2
9. Cn1cncc1-c1cc2c(Nc3ccc(OCc4ccccc4)cc3)ncnc2cn1 [GW281179] | 19

---

# Test system: CHEK1
# EXPERIMENTAL SETUP: concentration: 1 μM, replicates: in singlicate; n = 1
Readings of %Inh for the listed compounds
OBSERVED PROPERTY: %Inh (%)

1. CS(=O)(=O)Cc1ccc(Nc2nccc(-c3c(-c4cccc(NC(=O)C5CCCCC5)c4)nn4ncccc34)n2)cc1 | 12
2. Cc1nccc(-c2c(-c3ccc(F)cc3)ncn2CCCN2CCOCC2)n1.Cl | 7
3. COc1cccc(C2=C(Nc3cc(Cl)c(O)c(Cl)c3)C(=O)NC2=O)c1 | 100
4. CS(=O)(=O)CCNCc1nc(-c2ccc3ncnc(Nc4ccc(OCc5ccccc5)c(Cl)c4)c3c2)cs1.Cl | 100
5. COc1ccc(CSc2nnc(-c3ccc4c(c3)CCO4)o2)cc1 | 0
6. CNc1nc(-c2ccc3c(N)n[nH]c3c2)cc(N2C[C@@H](C(=O)Nc3ccccc3)CC[C@H]2C)n1 | 0
7. CCc1ccc(-c2ccc3c(c2)-c2n[nH]cc2S(=O)(=O)N3C)cc1 | 0
8. COC(=O)c1cccc(NC(=O)NC2CCN(c3ccnc(Nc4ccc(OC)cc4)n3)C2)c1 (stereo not shown) | 0
9. Cc1cccc2c(-c3ccncn3)c(-c3ccc(F)cc3)nn12 | 5
10. c1ccc(-c2ccnc3[nH]ccc23)cc1 | 12
11. O=C(Nc1n[nH]c2nc(-c3ccco3)c(Br)cc12)C1CCN(Cc2ccccc2)C1.O=C(O)[C@H](O)[C@@H](O)C(=O)O (stereo not shown) | 16
12. COc1ccc(Nc2nccc(N3CCC(NC(=O)C(C)c4ccc(Cl)cc4)CC3)n2)cc1 (stereo not shown) | 0
13. CNc1nc(-c2ccc3c(N)n[nH]c3c2)cc(N2C[C@@H](C(=O)NC3CCCCC3)OC[C@H]2C)n1 | 7

---

Readings of %Inh for the listed compounds
# Test system: BMPR1B
# EXPERIMENTAL SETUP: concentration: 1 μM, replicates: in singlicate; n = 1
OBSERVED PROPERTY: %Inh (%)

1) COc1ccc(CSc2nnc(-c3ccc4ncsc4c3)o2)cc1C(F)(F)F | 0
2) O=c1cc(N2CCOCC2)nc2n(Cc3ccccc3F)ccn12 [GSK2297428] | 0
3) Fc1ccc(-c2nc3n(c2-c2ccncc2)CCS3)cc1 [GI98581] | 0
4) CS(=O)(=O)Cc1ccc(Nc2nccc(-c3c(-c4cccc(NC(=O)C5CCCCC5)c4)nn4ncccc34)n2)cc1 [GSK350559] | 19
5) CC(=O)c1c(C)c2cnc(Nc3ccn(C)n3)nc2n(C2CCCC2)c1=O | 0
6) COc1nccc(-c2c(-c3ccc(F)cc3)ncn2CCCN2CCOCC2)n1 [SB-282852] | 0
7) COc1cc2ncnc(Nc3cccc(Br)c3)c2cc1OC.Cl [GI230329] | 0
8) Cc1ccc(NC(=O)Nc2ccccc2F)cc1-c1ccc(C(=O)Nc2ccncc2)cc1 [GSK1398477] | 0
9) COc1ccc(CSc2nnc(-c3ccc4c(c3)CCO4)o2)cc1 | 0
10) Cc1ccc(NC(=O)c2ccc(Cl)cc2)cc1-c1ccc(C(=O)Nc2ccncc2)cc1 [GSK1398467] | 0
11) COC(=O)C(NC(=O)NC1CCN(c2ccnc(Nc3ccc(F)cc3)n2)C1)c1ccccc1 (stereo not drawn) [GSK1379712] | 0
12) COc1ccc(CSc2nnc(-c3ccc4nccn4c3)o2)cc1C(F)(F)F | 21
13) CC(=O)c1cccc(NC(=O)NC2CCN(c3ccnc(Nc4ccc(F)cc4)n3)C2)c1 (stereo not drawn) [GSK1379710] | 0
14) Cc1ccc(-c2nc(Nc3ccncc3)c3ccccc3n2)s1 [GSK189015] | 0
15) Cc1ccc(NC(=O)Nc2ccccc2)cc1-c1ccc(C(=O)Nc2ccncc2)cc1 [GSK1398471] | 0
16) CNCc1ccc2nc(NC(=O)c3ccc(C(C)(C)C)cc3)cn2c1 | 14
17) CNc1cc(-c2ccc3c(N)n[nH]c3c2)nc(N)n1 [GSK2224810] | 78
18) O=C(Nc1n[nH]c2nc(-c3ccco3)c(Br)cc12)C1CCN(Cc2ccccc2)C1.O=C(O)[C@H](O)[C@@H](O)C(=O)O (stereo not drawn) [SB-742034] | 10
19) CSc1ccc(-c2nc3n(c2-c2ccncc2)CCC3)cc1 [SKF-105561] | 6
20) COc1ccc(Nc2nccc(N3CCC(NC(=O)c4cc5ccccc5s4)C3)n2)cc1 (stereo not drawn) [GSK1379738] | 0
21) COc1cccc(CNC(=O)NC2CCN(c3ccnc(Nc4ccc(F)cc4)n3)C2)c1 (stereo not drawn) [GSK1379723] | 0
22) Cc1ccc(NC(=O)Nc2ccc(Cl)cc2)cc1-c1ccc(C(=O)Nc2ccncc2)cc1 [GSK1398472] | 0
23) c1ccc(-c2ccnc3[nH]ccc23)cc1 [SB-693578] | 0
24) CCc1ccc(-c2ccc3c(c2)-c2n[nH]cc2S(=O)(=O)N3C)cc1 | 0
25) COc1ccc(Nc2nccc(N3CCC(NC(=O)C(C)c4ccc(Cl)cc4)CC3)n2)cc1 (stereo not drawn) [GSK1379812] | 0
26) CNC(=O)c1ccc(C)c(-n2c(C)cc(OCc3ccc(F)cc3F)c(Br)c2=O)c1 | 0
27) O=C1NC(=O)C(c2ccc(Cl)cc2)=C1Nc1cccc(Cl)c1 [SB-317651] | 0
28) Nc1nccc(-c2c(-c3ccc(F)cc3)ncn2C2CCN(Cc3ccccc3)CC2)n1 [SB-219980] | 2
29) O=C(Nc1n[nH]c2cc(-c3ccsc3)ccc12)C1CC1 [SB-732932] | 22
30) CC(C)c1ccc(O)cc1Nc1ccnc2ccc(C(F)(F)F)cc12 [GW482059] | 0
31) Cc1ccccc1-c1cc(-c2c[nH]nc2-c2ccccn2)ccn1 [GW680061] | 0
32) CC(=O)c1c(C)c2cnc(Nc3ccc(N4CCNCC4)cn3)nc2n(C2CCCC2)c1=O | 0
33) COc1cccc(C2=C(Nc3cc(Cl)c(O)c(Cl)c3)C(=O)NC2=O)c1 [SB-390767] | 0
